Target: HIV-1 RT (Human immunodeficiency virus type 1 group M subtype B, UniProt P03366)
Construct: HIV-1 RT assay was carried out in 96-well Millipore MultiScreen MADVNOB50 plates using purified recombinant enzyme
Test: HIV Reverse Transcriptase Assay: Inhibitor IC50 Determination
Format: biochemical
Conditions: purified recombinant enzyme, poly(rA)/oligo(dT)16 template-primer, 4 nM HIV-1 RT, 37° C. for 30 min, 10% DMSO; read-out: RT inhibition IC50
Experimental Readout: pIC50
Numbers only, as −log10 of the molar value.

> print(dat)
                                   compound  experimental.value
1  Cc1cc(Cc2ccc(Cl)c(Oc3cc(Cl)cc(C#N)c3)c2)n[nH]c1=O [I-108]                7.95
2  Cc1cc(Cc2ccc(Cl)c(Oc3cc(C#N)cc(C(F)F)c3)c2F)n[nH]c1=O [I-237]                7.89

Could I get pIC50 for every one of these entries?
1. O=c1ccc(Cc2cc(Oc3cc(Br)cc(Br)c3)c3occc3c2)n[nH]1 [I-142]
2. Cc1ccc(Cl)cc1Oc1cc(Cc2cc(C)c(=O)[nH]n2)ccc1Cl [I-123]
3. CCc1ccc(Cc2ccc(=O)[nH]n2)c(F)c1Oc1cc(Cl)cc(C#N)c1 [I-224]
4. CCc1ccc(Cc2cc(C)c(=O)[nH]n2)cc1Oc1cc(Cl)cc(C#N)c1 [I-98]

7.82
7.64
7.74
7.71

Would you mind giving pIC50 for every compound in the list below?
1. CCc1ccc(Cc2ccc(=O)[nH]n2)cc1Oc1cc(C)cc(C#N)c1 [I-100]
2. Cc1cc(Cc2ccc(Cl)c(Oc3cc(Cl)ccc3Br)c2)n[nH]c1=O [I-103]
3. O=c1ccc(Cc2ccc(Cl)c(Oc3cc(Cl)ccc3Br)c2)n[nH]1 [I-77]
4. CCc1ccc(Cc2cc(C)c(=O)[nH]n2)cc1Oc1cc(C)cc(C#N)c1 [I-109]

[7.62, 8.03, 7.62, 7.67]

Quick one: give me pIC50 for each item below, same order please.
1. O=c1ccc(Cc2ccc(Cl)c(Oc3cc(Cl)ccc3Cl)c2)n[nH]1 [I-102]
2. Cc1cc(Cc2ccc(Cl)c(Oc3cc(C#N)cc(C#N)c3)c2)n[nH]c1=O [I-135]

[7.69, 7.90]

Field pIC50 (system: HIV-1 RT (Human immunodeficiency virus type 1 group M subtype B, UniProt P03366)) for entry O=c1ccc(Cc2ccc(Cl)c(Oc3cc(Cl)ccc3Br)c2F)n[nH]1 [I-136] = 8.10
